Reference for the values: BigSolDB 2.1

Details: in water, 303.2 K
recorded endpoint: solubility (mole fraction)
Form field (numeric): enter value without unit.

Lookup: Which solubility (mole fraction) reading was recorded for the molecule Nc1cccc(C(=O)O)c1O ?
Found: 0.000141

* * *

Conditions: in water, 313.2 K
recorded endpoint: solubility (mole fraction)
Form field (numeric): enter value without unit.

Lookup: I would be grateful if you could share the reported solubility (mole fraction) for Nc1cccc(C(=O)O)c1O .
Found: 0.000178

* * *

Details: in ethanol, 293.2 K
recorded endpoint: solubility (mole fraction)
I'd appreciate a reply containing only the number, no unit.

Lookup: Fill blank: measured solubility (mole fraction) of the compound Nc1cccc(C(=O)O)c1O is ____.
Found: 0.000186

* * *

Settings: in ethanol, 313.2 K
recorded endpoint: solubility (mole fraction)
Reply with the value as a number alone.

Lookup: solubility (mole fraction) lookup needed for Nc1cccc(C(=O)O)c1O , thanks.
Found: 0.000386

* * *

Conditions: in ethanol, 308.2 K
recorded endpoint: solubility (mole fraction)
Lab note: record just the number, no unit beside it.

Lookup: # solubility (mole fraction) lookup, item Nc1cccc(C(=O)O)c1O
Found: 0.000332

* * *

Conditions: in water, 293.2 K
recorded endpoint: solubility (mole fraction)
Just the number, please.

Lookup: GET /values?readout=solubility (mole fraction)&item= Nc1cccc(C(=O)O)c1O
Found: 0.000113

* * *

Conditions: in ethanol, 298.2 K
recorded endpoint: solubility (mole fraction)

Lookup: Query: solubility (mole fraction); subject: Nc1cccc(C(=O)O)c1O
Found: 0.000238

* * *

Conditions: in water, 298.2 K
recorded endpoint: solubility (mole fraction)
Form field (numeric): enter value without unit.

Lookup: I'd like to know its solubility (mole fraction). The compound in question is Nc1cccc(C(=O)O)c1O
Found: 0.000126
